protocolDescription: RP, Agilent ZORBAX Eclipse Plus C18, 150 × 2.1 mm, 3.5 µm, 40 °C, 0.3 mL/min, estimated dead time 1.1 min; A: water + 0.1% formic acid; B: acetonitrile + 0.1% formic acid; gradient (min/%B) 0/2 1/2 2/20 16.5/98 22/98
appliedConditions: stereoisomer not certain
The label Criterion met is reserved for LC retention time strictly under 10 min; Criterion not met covers values equal to or above it.

LC retention time strictly < 10 min for this molecule? Cc1cc(=O)n(-c2ccccc2)n1C
Criterion met

What about CCc1cccc(C)c1N ?
Criterion met

What about CCN(CC)C(=O)Nc1ccc(OCC(O)CNC(C)(C)C)c(C(C)=O)c1 (stereo not given) ?
Criterion met

What about CCCCC[N+](CCCCC)(CCCCC)CCCCC ?
Criterion not met

What about O=P(O)(Oc1ccccc1)Oc1ccccc1 ?
Criterion met

What about COC(=O)CCCC[P+](c1ccccc1)(c1ccccc1)c1ccccc1 ?
Criterion met

What about CCC1OC(=O)C(C)C(OC2CC(C)(OC)C(O)C(C)O2)C(C)C(OC2OC(C)CC(N(C)C)C2O)C(C)(OC)CC(C)C(=O)C(C)C(O)C1(C)O (stereo not given) ?
Criterion met

What about COC(=O)c1ccc(O)cc1 ?
Criterion met

What about Nc1ccccc1C[P+](c1ccccc1)(c1ccccc1)c1ccccc1 ?
Criterion met

What about CC(C)c1ccccc1OP(=O)(Oc1ccccc1)Oc1ccccc1 ?
Criterion not met

What about CCOCCOC(=O)Nc1ccc(C)cc1 ?
Criterion not met

What about CCOP(=S)(OCC)Oc1cc(C)nc(C(C)C)n1 ?
Criterion not met

What about C#CCC1=C(C)C(OC(=O)C2C(C=C(C)C)C2(C)C)CC1=O (stereo not given) ?
Criterion not met

What about CC(C)(c1ccc(OCC(O)CO)cc1)c1ccc(OCC(O)CO)cc1 (stereo not given) ?
Criterion met

What about COCCOC(=O)Nc1ccc(C)c(NC(=O)OCCOC)c1 ?
Criterion met

What about CN(C)C1C(=O)C(C(N)=O)=C(O)C2(O)C(=O)C3=C(O)c4c(O)cccc4C(C)(O)C3CC12 (stereo not given) ?
Criterion met

What about CC(C)c1ccccc1OP(=O)(Oc1ccccc1)Oc1ccccc1C(C)C ?
Criterion not met

What about CN(C)CCC=C1c2ccccc2CCc2ccccc21 ?
Criterion met

---

protocolDescription: RP, Agilent ZORBAX Eclipse Plus C18, 150 × 2.1 mm, 3.5 µm, 40 °C, 0.3 mL/min, estimated dead time 1.1 min; A: water + 0.1% formic acid; B: acetonitrile + 0.1% formic acid; gradient (min/%B) 0/2 1/2 2/20 16.5/98 22/98
appliedConditions: stereoisomer not certain
Exercise: for every item that follows, state its recorded LC retention time.
Value expressed in min; do not type the unit.

Which LC retention time value is on record for COCC(=O)N(c1c(C)cccc1C)C(C)C(=O)OC (stereo unspecified) ?
10.2

What about CCC1(c2cccc(O)c2)CCCCN(C)C1 (stereo unspecified) ?
5.64

What about CN1CC(=O)N2C(Cc3c([nH]c4ccccc34)C2c2ccc3c(c2)OCO3)C1=O (stereo unspecified) ?
9.8

What about CCCCCC[N+](C)(C)Cc1ccccc1 ?
7.46

What about CC1(C)SC2C(NC(=O)C(N)c3ccccc3)C(=O)N2C1C(=O)O (stereo unspecified) ?
5.37

What about CC(C)NCC(O)COc1ccc(CC(=O)O)cc1 (stereo unspecified) ?
4.89

What about O=c1[nH]cnc2c1cnn2C1OC(CO)C(O)C1O (stereo unspecified) ?
4.31

What about O=P(O)(O)Cc1ccccc1 ?
5.04

What about O=C(c1ccccc1)c1ccc(O)c(O)c1O ?
9.4

What about CCC(C(=O)O)N1CCCC1=O (stereo unspecified) ?
5.7

What about CCCCCCCCc1ccc(CCC(N)(CO)CO)cc1 ?
10.2

What about CCOC(=O)NS(=O)(=O)c1ccc(C)cc1 ?
9.54

What about CCC1(C2OC(C3OC(O)(CO)C(C)CC3C)CC2C)CCC(C2(C)CCC3(CC(O)C(C)C(C(C)C(OC)C(C)C(=O)O)O3)O2)O1 (stereo unspecified) ?
20.4

What about COc1cccc(C2(O)CCCCC2C[N+](C)(C)[O-])c1 (stereo unspecified) ?
6.33

What about O=C1CC2(CCCCC2)CN1 ?
7.59

What about CCCC(=NOCC)C1=C(O)CC(CC(C)SCC)CC1=O (stereo unspecified) ?
16.1

---

protocolDescription: RP, Agilent ZORBAX Eclipse Plus C18, 150 × 2.1 mm, 3.5 µm, 40 °C, 0.3 mL/min, estimated dead time 1.1 min; A: water + 0.1% formic acid; B: acetonitrile + 0.1% formic acid; gradient (min/%B) 0/2 1/2 2/20 16.5/98 22/98
appliedConditions: stereoisomer not certain
Exercise: for every item that follows, state its recorded LC retention time.
Value expressed in min; do not type the unit.

Which LC retention time value is on record for Cn1cnc2c1c(=O)[nH]c(=O)n2C ?
5.24

What about CNCC(c1ccc(OC)cc1)C1(O)CCCCC1 (stereo not given) ?
6.44

What about CC(C)NC(=O)NS(=O)(=O)c1cnccc1Nc1cccc(CO)c1 ?
5.82

What about CCCCOCCOP(=O)(OCCOCCCC)OCCOCCCC ?
14.6

What about C[N+](C)(CCOc1ccccc1)Cc1ccccc1 ?
7.14

What about CC12CC=C3c4ccc(O)cc4CCC3C1CCC2(O)CC#N (stereo not given) ?
9.96

What about Cc1cc(C2CC2)nc(Nc2ccccc2)n1 ?
10.8

What about CC(C)COP(=O)(OCC(C)C)OCC(C)C ?
14

What about CC(Cc1ccc(C(C)(C)C)cc1)CN1CC(C)OC(C)C1 (stereo not given) ?
9.53

What about CCC1CCCC(OC2CCC(N(C)C)C(C)O2)C(C)C(=O)C2=CC3C(C=CC4CC(OC5OC(C)C(OC)C(OC)C5OC)CC43)C2CC(=O)O1 (stereo not given) ?
10.4

What about Cc1cccc(C(=O)O)c1 ?
8.59

What about CC(C)(C)NCC(O)COc1nsnc1N1CCOCC1 (stereo not given) ?
5.51

What about CC1(C)CC(N(C=O)CCCCCCN(C=O)C2CC(C)(C)NC(C)(C)C2)CC(C)(C)N1 ?
4.67

What about CC(=O)Nc1cccc(O)c1 ?
5.68

What about COC(=O)CCCCCCCCC(=O)OC1CC(C)(C)N(C)C(C)(C)C1 ?
8.34

What about O=C(O)c1cc(N=Nc2ccc(S(=O)(=O)Nc3ccccn3)cc2)ccc1O ?
9.22

What about CCOCCOC(=O)Nc1ccc(C)c(NC(=O)OCCOCC)c1 ?
9.91

What about Cc1cc(C)c(C(=O)P(=O)(c2ccccc2)c2ccccc2)c(C)c1 ?
14.1

What about O=C(O)CC1(C(=O)O)CCCCC1 ?
7.49

What about COc1nc(NC(C)C)nc(NC(C)C)n1 ?
7.39

---

protocolDescription: RP, Agilent ZORBAX Eclipse Plus C18, 150 × 2.1 mm, 3.5 µm, 40 °C, 0.3 mL/min, estimated dead time 1.1 min; A: water + 0.1% formic acid; B: acetonitrile + 0.1% formic acid; gradient (min/%B) 0/2 1/2 2/20 16.5/98 22/98
appliedConditions: stereoisomer not certain
Exercise: for every item that follows, state its recorded LC retention time.
Value expressed in min; do not type the unit.

Which LC retention time value is on record for O=P(Cc1ccccc1)(Cc1ccccc1)Cc1ccccc1 ?
11.6

What about CCOc1nc2cccc(C(=O)O)c2n1Cc1ccc(-c2ccccc2-c2nn[nH]n2)cc1 ?
10

What about CNC(=O)C(=NOC)c1ccccc1COc1cc(C)ccc1C ?
13.2

What about Cn1c(=O)[nH]c(=O)c2[nH]cnc21 ?
4.5

What about CCOP(=O)(OCC)OCC ?
7.41

What about CCCCCCCCCCCCCC[N+](C)(C)CCCCCCCCCCCCCC ?
16.9

What about CC(C)OP(=O)(Oc1ccccc1)Oc1ccccc1 ?
12.8

What about O=C(C1CCCCC1)N1CC(=O)N2CCc3ccccc3C2C1 (stereo not given) ?
10.8

What about CN(C)c1cccc(O)c1 ?
4.07

What about CCNCC(O)COc1ccc(CCOC)cc1 (stereo not given) ?
5.42

What about O=C([O-])CC[P+](c1ccccc1)(c1ccccc1)c1ccccc1 ?
6.75

What about NC(=O)N1c2ccccc2C=Cc2ccc(O)cc21 ?
7.92

What about CC12CCC(=O)C=C1CCC1C2C(=O)CC2(C)C1CCC2(O)C(=O)CO (stereo not given) ?
8.4

What about CC(CN1c2ccccc2Sc2ccccc21)N(C)C (stereo not given) ?
8

What about NC(=O)c1ccccc1 ?
5.64

What about CCOC(=O)CC(SP(=S)(OC)OC)C(=O)OCC (stereo not given) ?
12.9

What about Nc1ccc(S(=O)(=O)Nc2nccs2)cc1 ?
5.37

What about Cn1c(=O)c2c(ncn2C)n(C)c1=O ?
5.51

What about COC(=O)Nc1nc2ccc(S(=O)c3ccccc3)cc2[nH]1 (stereo not given) ?
6.58

What about COc1ccc2c3c1OC1C(OC(C)=O)C=CC4C(C2)N(C)CCC341 (stereo not given) ?
6.21
